# credit: ChEMBL document CHEMBL2021904

# STUDY_SYSTEM: Aldo-keto reductase family 1 member C3 (Homo sapiens, UniProt P42330)
# Sequence (P42330 whole entry): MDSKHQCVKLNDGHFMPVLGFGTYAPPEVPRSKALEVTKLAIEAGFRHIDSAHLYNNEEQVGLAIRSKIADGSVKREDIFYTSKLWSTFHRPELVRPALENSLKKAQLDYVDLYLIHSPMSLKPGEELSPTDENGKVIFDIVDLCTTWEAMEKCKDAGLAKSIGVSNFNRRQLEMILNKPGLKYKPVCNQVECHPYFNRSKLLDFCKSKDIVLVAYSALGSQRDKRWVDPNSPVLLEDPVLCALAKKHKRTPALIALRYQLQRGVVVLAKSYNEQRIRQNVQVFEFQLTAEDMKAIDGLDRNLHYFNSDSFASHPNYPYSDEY
# PROCEDURE_TEXT: Inhibition of recombinant AKR1C3 assessed as enzyme catalyzed oxidation of S-tetralol by fluorimetric assay
MEASUREMENT_TYPE: pIC50
// pIC50: -log10(molar conc.)

Query: Return reported pIC50; argument: O=C(O)c1cccc(Nc2ccc([N+](=O)[O-])c3ccccc23)c1
Response: 7.10

---

# STUDY_SYSTEM: Prostaglandin G/H synthase 2 (Homo sapiens, UniProt P35354)
# Sequence (P35354 whole entry): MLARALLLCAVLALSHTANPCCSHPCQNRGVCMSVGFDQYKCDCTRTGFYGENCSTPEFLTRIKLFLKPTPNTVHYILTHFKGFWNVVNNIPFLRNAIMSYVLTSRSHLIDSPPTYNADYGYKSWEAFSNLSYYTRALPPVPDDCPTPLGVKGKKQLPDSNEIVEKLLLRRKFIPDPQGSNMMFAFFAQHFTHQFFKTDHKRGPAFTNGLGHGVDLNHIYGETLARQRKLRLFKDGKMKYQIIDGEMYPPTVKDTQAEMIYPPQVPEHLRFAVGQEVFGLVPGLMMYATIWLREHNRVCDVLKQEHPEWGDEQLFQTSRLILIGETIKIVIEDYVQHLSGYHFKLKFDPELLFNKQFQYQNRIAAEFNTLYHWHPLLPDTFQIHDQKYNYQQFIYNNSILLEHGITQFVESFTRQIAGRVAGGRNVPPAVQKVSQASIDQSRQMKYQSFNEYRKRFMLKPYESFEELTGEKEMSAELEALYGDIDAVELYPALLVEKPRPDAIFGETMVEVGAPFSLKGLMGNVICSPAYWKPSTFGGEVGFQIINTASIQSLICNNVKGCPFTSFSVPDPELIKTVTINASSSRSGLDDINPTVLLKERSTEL
# PROCEDURE_TEXT: Inhibition of recombinant COX2
pIC50: −log10 of the molar value.
MEASUREMENT_TYPE: pIC50

Query: Which pIC50 is reported with Prostaglandin G/H synthase 2 (Homo sapiens, UniProt P35354) for this entry: O=C(O)c1cccc(Nc2ccc([N+](=O)[O-])c3ccccc23)c1 ?
Response: < 4.00
